Numbers sourced from PubChem BioAssay AID463195.

test: wild-type TIM10 yeast growth inhibition – luminescence, uHTS, counter-screen for tim10-1 yeast inhibitor project, primary screen (AID 463195);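 further: wild-type TIM10 isogenic control strain grown at permissive 25 °C; 0% = DMSO yeast wells and 100% = minimal medium wells without yeast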; settings: S. cerevisiae TIM10 strain growth, BacTiter-Glo luminescence, 24 h; at 10 µM; stronger effect = higher value
The campaign covered roughly 330,000 compounds. About 4,600 (1.4%) were called active. The sample holds actives, similar compounds and a random draw of the others, so the mix is not that of the screen.
VALUE KIND: inhibition (%)

[[record]]
molecule = "CC1(C)CC(CCC(=O)Nc2ccccc2Cl)C(=O)O1 (stereo not given)"
value_kind = "inhibition"
measured_number = 1.62

[[record]]
molecule = "CCOC(=O)CSc1nc2ccc(C)cc2n2cnnc12"
value_kind = "inhibition"
measured_number = 3.21

[[record]]
molecule = "Cc1cccc(N(C(=O)c2ccc(CN3CCOCC3)o2)C(C(=O)NC2CCCCC2)c2ccc(F)cc2)c1 (stereo not given)"
value_kind = "inhibition"
measured_number = -2.65

[[record]]
molecule = "CN(C)C(=O)COC(=O)c1cccc(S(=O)(=O)N2CC3(C)CC2CC(C)(C)C3)c1 (stereo not given)"
value_kind = "inhibition"
measured_number = 5.89

[[record]]
molecule = "CC(C)(C)C(=O)c1cnc(Nc2ccccc2)s1"
value_kind = "inhibition"
measured_number = 45.4

[[record]]
molecule = "Cc1nnnn1/C(=C\\c1ccccc1)C(=O)OCC(=O)N1CC2(C)CC1CC(C)(C)C2 (stereo not given)"
value_kind = "inhibition"
measured_number = 62.3

[[record]]
molecule = "CN(C)Cc1c(O)ccc2occ(C(O)c3ccccc3)c12 (stereo not given)"
value_kind = "inhibition"
measured_number = 9.39

[[record]]
molecule = "O=C(Nc1ccccc1Cl)/C(Cl)=C(\\Cl)S(=O)c1ccccc1 (stereo not given)"
value_kind = "inhibition"
measured_number = 86.7

[[record]]
molecule = "O=C(NCCc1ccc(F)cc1)c1ccc(S(=O)(=O)N2CCCCC2)cc1"
value_kind = "inhibition"
measured_number = 41.7

[[record]]
molecule = "CCOC(=O)CNC(=O)CSc1nc2cccnc2n1CC"
value_kind = "inhibition"
measured_number = 7.72

[[record]]
molecule = "CC(=O)c1cnc(-c2ccccc2)s1"
value_kind = "inhibition"
measured_number = 12.3

[[record]]
molecule = "Cc1c(NC(=O)Nc2ccccc2Cl)sc(=S)n1C"
value_kind = "inhibition"
measured_number = 2.45

[[record]]
molecule = "Cc1cccc(NC(=S)Nc2ccc(Cl)c(Cl)c2)c1"
value_kind = "inhibition"
measured_number = 24.3

[[record]]
molecule = "FC(F)(F)c1cccc(NC(=S)Nc2cccc(Cl)c2)c1"
value_kind = "inhibition"
measured_number = 50.8

[[record]]
molecule = "Cc1ccc(C)c(NC(=O)C2Cc3ccccc3CN2C(=O)OCc2ccccc2)c1 (stereo not given)"
value_kind = "inhibition"
measured_number = 27.9

[[record]]
molecule = "Cc1csc(NC(=S)Nc2cccc(Cl)c2)n1"
value_kind = "inhibition"
measured_number = 45.7

[[record]]
molecule = "CCOC(=O)c1cc2c(=O)[nH]c(C(Cl)(Cl)Cl)nc2o1"
value_kind = "inhibition"
measured_number = 1.82

[[record]]
molecule = "CC1=C(C(=O)Nc2cc(C)ccn2)C(c2cnn(C)c2)C2=C(CC(c3ccccc3)CC2=O)N1 (stereo not given)"
value_kind = "inhibition"
measured_number = 6.51

[[record]]
molecule = "Cc1cc(Cl)nc(NC(=O)Nc2cccc(Cl)c2)n1"
value_kind = "inhibition"
measured_number = 3.22

[[record]]
molecule = "COc1ccc(S(=O)(=O)N(CC(=O)N/N=C/c2ccc(C(=O)O)cc2)Cc2ccccc2)cc1OC"
value_kind = "inhibition"
measured_number = -21.2

